Molecular target: recombinant rat FAAH (rFAAH) (Rattus norvegicus)
Construct: The truncated rat FAAH (rFAAH) was expressed in E. coli and purified; made in house; host or cells: Escherichia coli
Assay: Enzyme assay: inhibition of purified recombinant rat FAAH, 14C-oleamide hydrolysis, Ki by Dixon plot
Format: biochemical
Conditions: Ki, Table 2, (S)-enantiomer, 1,2,3,4-tetrahydronaphthalene C2 acyl side chain
Description: Enzyme assays were performed at 20-23° C. with purified recombinant rat FAAH expressed in Escherichia coli or with solubilized COS-7 membrane extracts from cells transiently transfected with human FAAH cDNA (where specifically indicated) in a buffer of 125 mM Tris/1 mM EDTA/0.2% glycerol/0.02% Triton X-100/0.4 mM Hepes, pH 9.0. […] The inhibition assays were performed as follows. […] The ^14C-labeled oleamide (substrate) and oleic acid (product) were extracted with EtOAc and analyzed by TLC as detailed. […]
pKi: −log10 of the molar value.
Record criterion met whenever pKi is at 8 or higher; record criterion not met when lower.

compound | className
COC(=O)c1cccc(-c2cnc(C(=O)C3CCc4cc(Oc5ccccc5)ccc4C3)o2)n1 (single isomer, unassigned) [(S)-13] | criterion met
COC(=O)c1cccc(-c2cnc(C(=O)C3CCc4cc(-c5ccccc5)ccc4C3)o2)n1 (single isomer, unassigned) [(S)-7] | criterion not met
COC(=O)c1cnc(C(=O)C2CCc3cc(-c4ccccc4)ccc3C2)o1 (single isomer, unassigned) [(S)-4] | criterion not met
N#Cc1cnc(C(=O)C2CCc3cc(-c4ccccc4)ccc3C2)o1 (single isomer, unassigned) [(S)-5] | criterion met
O=C(c1ncc(-c2ccccn2)o1)C1CCc2cc(Oc3ccccc3)ccc2C1 (single isomer, unassigned) [(S)-12] | criterion met
COC(=O)c1cccc(-c2cnc(C(=O)C3CCc4cc(OCc5ccccc5)ccc4C3)o2)n1 (single isomer, unassigned) [(S)-19] | criterion not met
N#Cc1cnc(C(=O)C2CCc3cc(Oc4ccccc4)ccc3C2)o1 (single isomer, unassigned) [(S)-11] | criterion met
COC(=O)c1cnc(C(=O)C2CCc3cc(Oc4ccccc4)ccc3C2)o1 (single isomer, unassigned) [(S)-10] | criterion met
N#Cc1cnc(C(=O)C2CCc3cc(OCc4ccccc4)ccc3C2)o1 (single isomer, unassigned) [(S)-17] | criterion met
O=C(c1ncco1)C1CCc2cc(Oc3ccccc3)ccc2C1 (single isomer, unassigned) [(S)-9] | criterion met
O=C(O)c1cccc(-c2cnc(C(=O)C3CCc4cc(-c5ccccc5)ccc4C3)o2)n1 (single isomer, unassigned) [(S)-8] | criterion not met

====

# half-life annotations
Assay: Rat liver microsome stability (rlm t1/2)
Format: in vitro ADME
Settings: rat liver microsomes
measuredEndpoint: half-life

molecule | experimentalValue
O=C(CCCCCCc1ccccc1)c1ncc(-c2ccccn2)o1 [Compound 2, reference compound] | 2 to 4 min
O=C(c1ncc(-c2ccccn2)o1)C1CCc2cc(OCc3ccccc3)ccc2C1 (centres unmarked) [Compound 18] | 12 to 15 min

====

Ki by entry:
Target: recombinant rat FAAH (rFAAH) (Rattus norvegicus, UniProt P97612)
Construct: The truncated rat FAAH (rFAAH) was expressed in E. coli and purified; made in house; host or cells: Escherichia coli
Sequence (P97612 30-579 limits assumed): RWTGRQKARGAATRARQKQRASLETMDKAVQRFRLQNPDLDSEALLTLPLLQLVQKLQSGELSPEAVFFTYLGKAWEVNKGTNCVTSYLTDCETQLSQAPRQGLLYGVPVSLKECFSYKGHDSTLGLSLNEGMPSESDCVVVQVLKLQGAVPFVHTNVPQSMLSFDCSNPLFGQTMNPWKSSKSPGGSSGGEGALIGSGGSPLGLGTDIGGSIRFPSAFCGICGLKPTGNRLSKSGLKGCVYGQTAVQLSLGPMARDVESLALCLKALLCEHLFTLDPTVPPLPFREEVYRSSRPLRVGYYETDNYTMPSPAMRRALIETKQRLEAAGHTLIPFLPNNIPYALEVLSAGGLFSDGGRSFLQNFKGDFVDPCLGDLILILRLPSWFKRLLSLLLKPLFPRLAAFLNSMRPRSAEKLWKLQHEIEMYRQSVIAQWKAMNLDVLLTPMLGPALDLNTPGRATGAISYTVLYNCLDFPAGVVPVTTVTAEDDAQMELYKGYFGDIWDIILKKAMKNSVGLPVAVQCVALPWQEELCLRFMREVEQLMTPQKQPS
Experiment: Enzyme assay: inhibition of purified recombinant rat FAAH, 14C-oleamide hydrolysis, Ki by Dixon plot
Type: biochemical
Conditions: Ki, rFAAH, Table 5, active (S)-enantiomers

compound | Ki [nM]
O=C(c1ncc(-c2ccccn2)o1)C1CCc2cc(Oc3ccccc3)ccc2C1 (centres unmarked) [Compound 12] | 4.4
O=C(O)c1cccc(-c2cnc(C(=O)C3CCc4cc(Oc5ccccc5)ccc4C3)o2)n1 (centres unmarked) [Compound 14] | 25

====

Molecular target: recombinant rat FAAH (rFAAH) (Rattus norvegicus)
Construct: The truncated rat FAAH (rFAAH) was expressed in E. coli and purified; made in house; host or cells: Escherichia coli
Sequence (P97612 30-579 limits assumed): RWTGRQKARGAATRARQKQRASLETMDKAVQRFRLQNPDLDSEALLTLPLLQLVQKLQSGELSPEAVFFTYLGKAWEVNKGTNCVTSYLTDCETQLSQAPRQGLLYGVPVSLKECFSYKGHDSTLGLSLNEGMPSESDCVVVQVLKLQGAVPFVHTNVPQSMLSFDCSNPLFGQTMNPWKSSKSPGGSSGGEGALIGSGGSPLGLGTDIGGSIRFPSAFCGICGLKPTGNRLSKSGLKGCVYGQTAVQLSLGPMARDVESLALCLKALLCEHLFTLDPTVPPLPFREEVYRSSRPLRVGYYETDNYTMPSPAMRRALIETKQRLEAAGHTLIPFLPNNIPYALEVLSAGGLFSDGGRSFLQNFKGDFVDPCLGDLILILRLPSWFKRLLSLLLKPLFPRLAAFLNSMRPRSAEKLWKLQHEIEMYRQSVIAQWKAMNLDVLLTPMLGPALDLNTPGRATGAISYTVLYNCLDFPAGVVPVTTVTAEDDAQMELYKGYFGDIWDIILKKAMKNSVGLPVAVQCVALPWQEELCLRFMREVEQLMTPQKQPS
Assay: Enzyme assay: inhibition of purified recombinant rat FAAH, 14C-oleamide hydrolysis, Ki by Dixon plot
Type: biochemical
Conditions: Ki, Table 3, tentatively assigned (S)-enantiomer, indane C2 acyl side chain
Labels assigned by Ki range: range 1 (below 2 nM), range 2 (2 nM to below 50 nM), range 3 (50 nM or more)

compound | className
COC(=O)c1cccc(-c2cnc(C(=O)C3Cc4ccc(Oc5ccccc5)cc4C3)o2)n1 (single isomer, unassigned) [(S)-28] | range 3
O=C(c1ncco1)C1Cc2ccc(Oc3ccccc3)cc2C1 (single isomer, unassigned) [(S)-26] | range 2
O=C(c1ncco1)C1Cc2ccc(-c3ccccc3)cc2C1 (single isomer, unassigned) [(S)-22, Oxazol-2-yl(5-phenylindan-2-yl)methanone] | range 2
O=C(c1ncc(-c2ccccn2)o1)C1Cc2ccc(-c3ccccc3)cc2C1 (single isomer, unassigned) [(S)-23] | range 1
O=C(O)c1cccc(-c2cnc(C(=O)C3Cc4ccc(Oc5ccccc5)cc4C3)o2)n1 (single isomer, unassigned) [(S)-29] | range 3
O=C(c1ncc(-c2ccccn2)o1)C1Cc2ccc(OCc3ccccc3)cc2C1 (single isomer, unassigned) [(S)-31] | range 1
O=C(c1ncc(-c2ccccn2)o1)C1Cc2ccc(Oc3ccccc3)cc2C1 (single isomer, unassigned) [(S)-27] | range 2
COC(=O)c1cccc(-c2cnc(C(=O)C3Cc4ccc(OCc5ccccc5)cc4C3)o2)n1 (single isomer, unassigned) [(S)-32] | range 2

====

Biological target: recombinant rat FAAH (rFAAH) (Rattus norvegicus, UniProt P97612)
Construct: The truncated rat FAAH (rFAAH) was expressed in E. coli and purified; made in house; host or cells: Escherichia coli
Sequence (P97612 30-579 limits assumed): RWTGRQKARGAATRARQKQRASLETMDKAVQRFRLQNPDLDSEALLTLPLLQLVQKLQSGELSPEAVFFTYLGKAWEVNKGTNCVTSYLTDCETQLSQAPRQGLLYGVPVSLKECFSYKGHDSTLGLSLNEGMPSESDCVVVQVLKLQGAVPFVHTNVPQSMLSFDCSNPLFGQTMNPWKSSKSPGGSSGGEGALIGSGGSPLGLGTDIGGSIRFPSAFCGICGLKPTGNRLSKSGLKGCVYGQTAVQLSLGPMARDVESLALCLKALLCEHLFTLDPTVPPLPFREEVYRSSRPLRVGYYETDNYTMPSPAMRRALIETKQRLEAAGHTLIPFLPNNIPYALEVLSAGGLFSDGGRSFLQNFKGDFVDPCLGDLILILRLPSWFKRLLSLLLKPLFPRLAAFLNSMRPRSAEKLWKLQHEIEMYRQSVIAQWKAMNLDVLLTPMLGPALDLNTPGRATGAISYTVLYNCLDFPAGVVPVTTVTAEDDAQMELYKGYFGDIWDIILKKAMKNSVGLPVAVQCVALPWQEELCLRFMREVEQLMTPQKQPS
Assay: Enzyme assay: inhibition of purified recombinant rat FAAH, 14C-oleamide hydrolysis, Ki by Dixon plot
Assay type: biochemical
Conditions: Ki, Table 3, racemate (enantiomers not separable), indane C2 acyl side chain
pKi: −log10 of the molar value.
The reader will find reported pKi values listed item by item below.

molecule | systemName | pKi
O=C(O)c1cccc(-c2cnc(C(=O)C3Cc4ccc(-c5ccccc5)cc4C3)o2)n1 (racemic) | recombinant rat FAAH (rFAAH) (Rattus norvegicus, UniProt P97612) | 7.24
COC(=O)c1cccc(-c2cnc(C(=O)C3Cc4ccc(-c5ccccc5)cc4C3)o2)n1 (racemic) | recombinant rat FAAH (rFAAH) (Rattus norvegicus, UniProt P97612) | 8.21
